Here the recorded pKi is given for each entry.
# measuredTarget: Proprotein convertase subtilisin/kexin type 6 (Homo sapiens, UniProt P29122)
# Sequence (P29122 whole entry): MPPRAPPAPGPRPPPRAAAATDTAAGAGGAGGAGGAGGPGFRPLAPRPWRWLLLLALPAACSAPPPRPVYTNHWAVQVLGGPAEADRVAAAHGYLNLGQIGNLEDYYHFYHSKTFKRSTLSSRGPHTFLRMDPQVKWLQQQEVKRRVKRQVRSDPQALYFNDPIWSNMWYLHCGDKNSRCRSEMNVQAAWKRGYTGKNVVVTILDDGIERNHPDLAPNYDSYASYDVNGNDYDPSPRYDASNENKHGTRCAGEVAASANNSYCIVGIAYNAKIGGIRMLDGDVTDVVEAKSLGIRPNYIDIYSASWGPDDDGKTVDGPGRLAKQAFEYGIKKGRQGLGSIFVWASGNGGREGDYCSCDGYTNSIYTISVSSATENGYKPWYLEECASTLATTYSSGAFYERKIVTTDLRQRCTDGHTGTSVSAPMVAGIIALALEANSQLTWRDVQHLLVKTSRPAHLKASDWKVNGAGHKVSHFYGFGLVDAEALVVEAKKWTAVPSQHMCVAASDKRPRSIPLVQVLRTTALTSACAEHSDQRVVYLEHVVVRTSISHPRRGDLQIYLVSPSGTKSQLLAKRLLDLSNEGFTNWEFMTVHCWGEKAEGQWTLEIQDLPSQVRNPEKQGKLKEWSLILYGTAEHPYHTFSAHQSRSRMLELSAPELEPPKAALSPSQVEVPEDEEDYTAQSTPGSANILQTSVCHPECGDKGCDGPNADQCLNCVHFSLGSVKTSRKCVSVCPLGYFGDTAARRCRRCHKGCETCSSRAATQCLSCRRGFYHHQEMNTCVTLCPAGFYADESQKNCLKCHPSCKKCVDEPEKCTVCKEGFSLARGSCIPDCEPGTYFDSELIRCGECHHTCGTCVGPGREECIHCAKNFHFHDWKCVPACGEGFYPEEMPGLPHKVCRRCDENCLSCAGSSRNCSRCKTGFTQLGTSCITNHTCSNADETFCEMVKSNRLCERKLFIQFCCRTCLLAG
# methodDescription: Competitive inhibition of human recombinant PACE4 expressed in Drosophila S2 cells using pyroGlu-Arg-Val-Lys-Arg-methyl-coumaryl-7-amide as substrate at pH 6.5 after 60 mins by spectrofluorometric analysis
Peptide text beside a SMILES is read from it.
Answer as the number alone; pKi is minus log10 of concentration in mol/L.

Known pKi results, listed for orientation:
molecule	measuredTarget	pKi
CC(C)C[C@H](NC(=O)[C@@H](N)CC(C)C)C(=O)N[C@@H](CCCNC(=N)N)C(=O)N[C@@H](CCCNC(=N)N)C(=O)N[C@@H](C)C(=O)N[C@@H](CCCCN)C(=O)N[C@@H](CCCNC(=N)N)C(=O)O (H-LLRRAKR-OH)	Proprotein convertase subtilisin/kexin type 6 (Homo sapiens, UniProt P29122)	9.47
CC(=O)CCCCCCCCN[C@@H](CC(C)C)C(=O)N[C@@H](CC(C)C)C(=O)N[C@@H](CC(C)C)C(=O)N[C@@H](CC(C)C)C(=O)N[C@@H](CCCNC(=N)N)C(=O)N[C@H](C(=O)N[C@@H](CCCCN)C(=O)N[C@@H](CCCNC(=N)N)C(N)=O)C(C)C	Proprotein convertase subtilisin/kexin type 6 (Homo sapiens, UniProt P29122)	7.64

Could you now consider this next molecule?
Field pKi (system: Proprotein convertase subtilisin/kexin type 6 (Homo sapiens, UniProt P29122)) for entry CC(=O)N[C@@H](CC(C)C)C(=O)N[C@@H](CC(C)C)C(=O)N[C@@H](CC(C)C)C(=O)N[C@@H](CCCN=C(N)N)C(=O)N[C@H](C(=O)N[C@@H](CCCCN)C(=O)N[C@@H](CCCN=C(N)N)C(N)=O)C(C)C = 7.74

* * *

Here the recorded Ki is given for each entry.
# measuredTarget: Furin (Homo sapiens)
# Sequence (P09958 whole entry): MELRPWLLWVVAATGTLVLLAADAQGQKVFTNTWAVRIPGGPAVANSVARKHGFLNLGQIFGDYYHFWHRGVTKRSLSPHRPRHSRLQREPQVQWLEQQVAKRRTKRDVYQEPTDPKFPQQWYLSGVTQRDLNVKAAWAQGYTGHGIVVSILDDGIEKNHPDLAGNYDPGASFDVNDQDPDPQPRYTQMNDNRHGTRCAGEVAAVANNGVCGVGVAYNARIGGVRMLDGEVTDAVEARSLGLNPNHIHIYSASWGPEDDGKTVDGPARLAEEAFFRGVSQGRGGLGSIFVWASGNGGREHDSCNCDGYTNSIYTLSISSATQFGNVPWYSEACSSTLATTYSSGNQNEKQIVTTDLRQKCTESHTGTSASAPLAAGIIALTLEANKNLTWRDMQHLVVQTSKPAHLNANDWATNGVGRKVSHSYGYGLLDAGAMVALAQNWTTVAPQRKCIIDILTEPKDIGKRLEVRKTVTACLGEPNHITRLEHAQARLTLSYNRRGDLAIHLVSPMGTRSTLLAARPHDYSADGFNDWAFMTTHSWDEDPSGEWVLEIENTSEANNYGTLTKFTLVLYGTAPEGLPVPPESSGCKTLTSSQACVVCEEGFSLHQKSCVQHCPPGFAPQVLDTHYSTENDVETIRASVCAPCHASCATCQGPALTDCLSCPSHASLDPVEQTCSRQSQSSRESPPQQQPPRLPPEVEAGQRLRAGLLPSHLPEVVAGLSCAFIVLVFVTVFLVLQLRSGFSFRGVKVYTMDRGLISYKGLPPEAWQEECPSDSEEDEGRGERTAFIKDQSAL
# methodDescription: Competitive inhibition of human recombinant furin expressed in Drosophila S2 cells using pyroGlu-Arg-Val-Lys-Arg-methyl-coumaryl-7-amide as substrate at pH 7.5 after 60 mins by spectrofluorometric analysis
Peptide text beside a SMILES is read from it.
Answer with the value and then the unit.

Known Ki results, listed for orientation:
compound	Ki
CC(C)C[C@H](N)C(=O)N[C@@H](CCCN=C(N)N)C(=O)N[C@@H](CCCN=C(N)N)C(=O)N[C@@H](CCCN=C(N)N)C(=O)N[C@H](C(=O)N[C@@H](CCCCN)C(=O)N[C@@H](CCCN=C(N)N)C(=O)O)C(C)C (H-LRRRVKR-OH)	9 nM
CC(=O)CCCCCCCCN[C@@H](CC(C)C)C(=O)N[C@@H](CC(C)C)C(=O)N[C@@H](CC(C)C)C(=O)N[C@@H](CC(C)C)C(=O)N[C@@H](CCCNC(=N)N)C(=O)N[C@H](C(=O)N[C@@H](CCCCN)C(=O)N[C@@H](CCCNC(=N)N)C(N)=O)C(C)C	500 nM
CC(=O)N[C@@H](CC(C)C)C(=O)N[C@@H](CC(C)C)C(=O)N[C@@H](CCCN=C(N)N)C(=O)N[C@H](C(=O)N[C@@H](CCCCN)C(=O)N[C@@H](CCCN=C(N)N)C(N)=O)C(C)C	900 nM

Could you now consider this next compound?
Field Ki (system: Furin (Homo sapiens)) for entry CC(=O)OCCOCCOCCOCCOCCOCCOCCOCCN[C@@H](CC(C)C)C(=O)N[C@@H](CC(C)C)C(=O)N[C@@H](CC(C)C)C(=O)N[C@@H](CC(C)C)C(=O)N[C@@H](CCCNC(=N)N)C(=O)N[C@H](C(=O)N[C@@H](CCCCN)C(=O)N[C@@H](CCCNC(=N)N)C(N)=O)C(C)C = 480 nM

* * *

# measuredTarget: Furin (Homo sapiens)
# methodDescription: Competitive inhibition of human recombinant furin expressed in Drosophila S2 cells using pyroGlu-Arg-Val-Lys-Arg-methyl-coumaryl-7-amide as substrate at pH 7.5 after 60 mins by spectrofluorometric analysis
endpoint: Ki (nM)
Quick note: give the figure in nM, leave out the unit.

Field Ki (system: Furin (Homo sapiens)) for entry CC(=O)N[C@@H](CC(C)C)C(=O)N[C@@H](CC(C)C)C(=O)N[C@@H](CC(C)C)C(=O)N[C@@H](CCCN=C(N)N)C(=O)N[C@H](C(=O)N[C@@H](CCCCN)C(=O)N[C@@H](CCCN=C(N)N)C(N)=O)C(C)C = 400

* * *

Here the recorded pKi is given for each entry.
# measuredTarget: Proprotein convertase subtilisin/kexin type 6 (Homo sapiens)
# methodDescription: Competitive inhibition of human recombinant PACE4 expressed in Drosophila S2 cells using pyroGlu-Arg-Val-Lys-Arg-methyl-coumaryl-7-amide as substrate at pH 6.5 after 60 mins by spectrofluorometric analysis
Peptide text beside a SMILES is read from it.
Answer as the number alone; pKi is minus log10 of concentration in mol/L.

compound	recordedValue
CC(=O)OCCOCCOCCOCCOCCOCCOCCOCCN[C@@H](CC(C)C)C(=O)N[C@@H](CC(C)C)C(=O)N[C@@H](CC(C)C)C(=O)N[C@@H](CC(C)C)C(=O)N[C@@H](CCCNC(=N)N)C(=O)N[C@H](C(=O)N[C@@H](CCCCN)C(=O)N[C@@H](CCCNC(=N)N)C(N)=O)C(C)C	7.72

Field pKi (system: Proprotein convertase subtilisin/kexin type 6 (Homo sapiens)) for entry CC(C)[C@H](N)C(=O)N[C@@H](CCCCN)C(=O)N[C@@H](CCCN=C(N)N)C(=O)N[C@@H](CCCN=C(N)N)C(=O)N[C@H](C(=O)N[C@@H](CCCCN)C(=O)N[C@@H](CCCN=C(N)N)C(=O)O)C(C)C (H-VKRRVKR-OH) = 8.70

* * *

# Organism: Homo sapiens
# methodDescription: Selectivity ratio of Ki for human recombinant furin to Ki for human recombinant PACE4
Peptide text beside a SMILES is read from it.
Here the recorded Ratio Ki is given for each entry.

molecule	Ratio Ki
CC(C)C[C@H](NC(=O)[C@@H](N)CC(C)C)C(=O)N[C@@H](CCCNC(=N)N)C(=O)N[C@@H](CCCNC(=N)N)C(=O)N[C@@H](C)C(=O)N[C@@H](CCCCN)C(=O)N[C@@H](CCCNC(=N)N)C(=O)O (H-LLRRAKR-OH)	36

Could you now consider this next molecule?
The recorded Ratio Ki for CC(C)[C@H](N)C(=O)N[C@@H](CCCCN)C(=O)N[C@@H](CCCNC(=N)N)C(=O)N[C@@H](CCCNC(=N)N)C(=O)N[C@H](C(=O)N[C@@H](CCCCN)C(=O)N[C@@H](CCCNC(=N)N)C(=O)O)C(C)C (H-VKRRVKR-OH) is 2.7

* * *

Here the recorded pKi is given for each entry.
# measuredTarget: Proprotein convertase subtilisin/kexin type 6 (Homo sapiens, UniProt P29122)
# methodDescription: Competitive inhibition of human recombinant PACE4 expressed in Drosophila S2 cells using pyroGlu-Arg-Val-Lys-Arg-methyl-coumaryl-7-amide as substrate at pH 6.5 after 60 mins by spectrofluorometric analysis
Peptide text beside a SMILES is read from it.
Answer as the number alone; pKi is minus log10 of concentration in mol/L.

Known pKi results, listed for orientation:
compound	pKi
CC(=O)N[C@@H](CC(C)C)C(=O)N[C@@H](CC(C)C)C(=O)N[C@@H](CCCN=C(N)N)C(=O)N[C@H](C(=O)N[C@@H](CCCCN)C(=O)N[C@@H](CCCN=C(N)N)C(N)=O)C(C)C	6.62
C[C@H](N)C(=O)N[C@@H](CCCCN)C(=O)N[C@@H](CCCNC(=N)N)C(=O)N[C@@H](CCCNC(=N)N)C(=O)N[C@H](C(=O)N[C@@H](CCCCN)C(=O)N[C@@H](CCCNC(=N)N)C(=O)O)[C@@H](C)O (H-AKRRTKR-OH)	9.40

Field pKi (system: Proprotein convertase subtilisin/kexin type 6 (Homo sapiens, UniProt P29122)) for entry CC(C)C[C@H](N)C(=O)N[C@@H](CCCN=C(N)N)C(=O)N[C@@H](CCCN=C(N)N)C(=O)N[C@@H](CCCN=C(N)N)C(=O)N[C@H](C(=O)N[C@@H](CCCCN)C(=O)N[C@@H](CCCN=C(N)N)C(=O)O)C(C)C (H-LRRRVKR-OH) = 8.15

* * *

# Organism: Homo sapiens
# methodDescription: Selectivity ratio of Ki for human recombinant furin to Ki for human recombinant PACE4
Peptide text beside a SMILES is read from it.
Here the recorded Ratio Ki is given for each entry.
# output: bare number, no unit

Known Ratio Ki results, listed for orientation:
compound	Ratio Ki
C[C@H](N)C(=O)N[C@@H](CCCCN)C(=O)N[C@@H](CCCNC(=N)N)C(=O)N[C@@H](CCCNC(=N)N)C(=O)N[C@H](C(=O)N[C@@H](CCCCN)C(=O)N[C@@H](CCCNC(=N)N)C(=O)O)[C@@H](C)O (H-AKRRTKR-OH)	4.2
CC(C)C[C@H](N)C(=O)N[C@@H](CCCNC(=N)N)C(=O)N[C@@H](CCCNC(=N)N)C(=O)N[C@@H](CCCNC(=N)N)C(=O)N[C@H](C(=O)N[C@@H](CCCCN)C(=O)N[C@@H](CCCNC(=N)N)C(=O)O)C(C)C (H-LRRRVKR-OH)	1.3
N=C(N)NCCC[C@H](NC(=O)[C@H](CCCCN)NC(=O)[C@H](CO)NC(=O)[C@H](CCCNC(=N)N)NC(=O)[C@H](CCC(=O)O)NC(=O)[C@H](CCCCN)NC(=O)[C@@H](N)CCC(=O)O)C(=O)O (H-EKERSKR-OH)	1.3
CC(C)[C@H](N)C(=O)N[C@@H](CCCCN)C(=O)N[C@@H](CCCCN)C(=O)N[C@@H](CCCNC(=N)N)C(=O)N[C@H](C(=O)N[C@@H](CCCCN)C(=O)N[C@@H](CCCNC(=N)N)C(=O)O)[C@@H](C)O (H-VKKRTKR-OH)	2.2

Could you now consider this next compound?
The recorded Ratio Ki for N=C(N)NCCC[C@H](NC(=O)[C@H](CCCCN)NC(=O)[C@H](CCCCN)NC(=O)[C@H](CCCNC(=N)N)NC(=O)[C@H](CC(=O)O)NC(=O)[C@H](Cc1ccccc1)NC(=O)CN)C(=O)O (H-GFDRKKR-OH) is 1
